# System: U251 CNS
# assay: NCI-60 one-dose screen, 48 h
# measurement conditions: 10 µM unless noted
The panel holds about 83,000 compounds, 20% with a hit somewhere; the sample as a whole holds those more often. Calls of active or inactive are those of the source. The calls were made as follows: active = growth percent below 10; inactive = the rest.
Bench note: report the call from True (active), False (inactive)

Would you please look over these solved cases?
molecule	category
CN(C)CCCNC(=O)c1cc(NC(=O)c2cc(NC(=O)c3ccc(/C=C/c4ccccc4)cc3)cn2C)cn1C	True
COc1ccc(NC(=O)Cn2c(O)c(N=Nc3ccc(S(N)(=O)=O)cc3)c3ccccc32)cc1	True
COc1ccc2[nH]cc(-c3nc(N)nnc3-c3cn(C)c4ncccc34)c2c1	False
COc1cc2c(c(OC)c1OC)C(=O)CC(c1cccc(NC(=O)c3cc(NC(=O)[C@H](CO)NC(=O)OC(C)(C)C)ccc3Cl)c1)O2 (stereo partly drawn)	False
O=C(Nc1ccccc1)N1CCN(c2cc(-c3cn(-c4ccccc4)nc3-c3cccc(O)c3)ccn2)CC1	False

Hey, what did the test say about CN1C(=O)/C(=C/c2ccc(C(=O)Nc3ncc(Cc4ccc(Cl)cc4Cl)s3)cc2)SC1=S ?
False

Hey, what did the test say about CCCn1cc(-c2nc(Nc3ccc(C(=O)NCCCCNc4cccc5c4C(=O)N(C4CCC(=O)NC4=O)C5=O)cc3)nc3[nH]ccc23)cn1 (stereo not drawn) ?
False

Hey, what did the test say about Cc1cc(C)cc(NC(=O)Cn2cc(COn3nnc4ccccc43)nn2)c1 ?
False

Hey, what did the test say about C=C1CC[C@@H]2[C@]3(C)COC(c4cn[nH]c4-c4ccc(Br)cc4)O[C@@H]3CC[C@@]2(C)[C@@H]1C/C=C1/C(=O)OCC1O (stereo partly drawn) ?
True

Hey, what did the test say about COc1ccccc1C(=O)NN1C(=O)/C(=C/C2=Cc3ccccc3OC2)SC1=S ?
False

Hey, what did the test say about CC1=C(C(=O)OCc2ccccc2)C(c2c(O)cc(O)cc2O)n2c(nc3ccccc32)N1 (stereo not drawn) ?
False

Hey, what did the test say about CCN(CC)c1ccc(/C=N/Nc2nc(-c3ccc(Br)cc3)cs2)c(O)c1 ?
False

Hey, what did the test say about CCCSc1nc(NCCc2c[nH]c3ccccc23)c(C#N)c(-c2ccccc2)n1 ?
False

Hey, what did the test say about CCCSc1nc(Nc2ccc(S(N)(=O)=O)cc2)c(C#N)c(-c2ccc(Cl)cc2)n1 ?
True

Hey, what did the test say about COc1cc(/C=C/C(=O)c2nnn(-c3ccc(Cl)cc3)c2C)cc(OC)c1OC ?
False

Hey, what did the test say about Cc1ccc(S(=O)(=O)c2nc(S(=O)(=O)c3ccc(C)cc3)c(N3CCC(O)CC3)s2)cc1 ?
False

Hey, what did the test say about CCCCCCCCc1ccc(C(=O)Nc2cccc(P(=O)(O)O)c2)cc1 ?
False

Hey, what did the test say about CC12CC[C@@H]3[C@]4(C)COC(c5c(F)cccc5F)O[C@@H]4CC[C@@]3(C)[C@@H]1CC(C1=CCOC1=O)O2 (stereo partly drawn) ?
False

====

# Test system: HOP-92 NSCLC
# assay: NCI-60 one-dose screen, 48 h (100 = growth as untreated, 0 = no growth, -100 = all killed)
# measurement conditions: 10 µM unless noted
The panel holds about 83,000 compounds, 20% with a hit somewhere; the sample as a whole holds those more often.
Classify on growth using bottom: < 50%; middle: ≥ 50% and < 80%; top: ≥ 80%

compound	system tested	category
CCOC(=O)C1=C(N)N(c2ccccc2)C2=C(C(=O)CC(C)(C)C2)C1c1cccc(Cl)c1Cl (stereo not given)	HOP-92 NSCLC	bottom
N/N=C(\N)c1c(N)nc(=S)[nH]c1-c1ccc(Cl)cc1Cl	HOP-92 NSCLC	middle
COc1cc(/C=C/C(=O)c2ccc(C)cc2)ccc1Oc1nc(Nc2ccc(F)cc2)nc(N(C)C)n1	HOP-92 NSCLC	middle
COc1cc(CNC(=O)/C=C/c2ccc3c(c2)OCO3)ccc1OCc1cn(-c2cccc(C(F)(F)F)c2)nn1	HOP-92 NSCLC	bottom
Clc1cccc(Cl)c1/C=C/c1cc(/C=C/c2ccc(Br)cc2)c2ccccc2n1	HOP-92 NSCLC	top
N#Cc1c(-c2ccc(Cl)cc2)nc2n[nH]c(-c3ccc(Cl)cc3)c2c1-c1ccc(C(F)(F)F)cc1	HOP-92 NSCLC	bottom
O=C(c1ccccc1)C(c1c[nH]c2ccccc12)c1c[nH]c2ccccc12	HOP-92 NSCLC	middle

Entry Cc1ccc(NCC(=O)Cn2cc(COc3ccc(C=Nc4cnc5ccccc5c4)cc3)nn2)cc1 belongs to which category?
top
